All values here come from paper PMC3769332.

- assay target: T1, GST-Scrib PDZ3 (human, UniProt Q14160 994-1103)
- T1 sequence (looked up): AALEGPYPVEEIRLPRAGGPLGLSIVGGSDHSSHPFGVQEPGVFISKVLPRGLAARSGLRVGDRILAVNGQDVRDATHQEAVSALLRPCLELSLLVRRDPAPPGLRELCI
- protocol: AlphaScreen or HTRF
I'd appreciate it if you could supply EC50 values for the items below.
One number for each entry, in µM.

binder | EC50 [µM]
VLKNMNDPAWDETNL [soluble non-biotinylated βPIX carboxy-terminal peptide (HTRF)] | 8

Task: Name the recorded EC50 for MSCCRSSRTRRETQL [synthetic E6 carboxy-terminal peptide] .
Output: 0.4
